The origin of these recorded values is PubChem BioAssay (EPA / NIEHS).

Target: rat Peripheral-type Benzodiazepine Receptor (PBR), Tspo (gene 24230) (UniProt P16257)
Sequence (P16257 whole entry, looked up): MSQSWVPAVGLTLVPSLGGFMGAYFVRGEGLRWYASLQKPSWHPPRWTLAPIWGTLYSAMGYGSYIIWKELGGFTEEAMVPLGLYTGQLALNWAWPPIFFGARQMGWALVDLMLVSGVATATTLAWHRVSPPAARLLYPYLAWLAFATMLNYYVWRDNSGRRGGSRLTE
Assay: NVS_MP_rPBR: NovaScreen (NVS) Membrane Protein Assay for rat Peripheral-type Benzodiazepine Receptor (PBR) (AID 2283335)
Inconclusive results are not listed. Activity calls are given as the source filed them. How the source made its calls: active means hit-call score of the fitted dose curve at least 0.9, where 1 is the maximum; inconclusive means response in the unintended direction; inactive means score below 0.9.
The reply should name one outcome from T = active, F = inactive

query: Lab log entry: `Cc1ccc(S(=O)(=O)C(I)I)cc1` — outcome as called in the assay?
result: T

query: Tell me the recorded outcome of this test for `CC(C)Nc1ccc(NC(C)C)c2c1C(=O)c1ccccc1C2=O` .
result: T

---

Target: chimpanzee Androgen Receptor (AR), AR (gene 747460) (UniProt O97775)
Sequence (O97775 whole entry, looked up): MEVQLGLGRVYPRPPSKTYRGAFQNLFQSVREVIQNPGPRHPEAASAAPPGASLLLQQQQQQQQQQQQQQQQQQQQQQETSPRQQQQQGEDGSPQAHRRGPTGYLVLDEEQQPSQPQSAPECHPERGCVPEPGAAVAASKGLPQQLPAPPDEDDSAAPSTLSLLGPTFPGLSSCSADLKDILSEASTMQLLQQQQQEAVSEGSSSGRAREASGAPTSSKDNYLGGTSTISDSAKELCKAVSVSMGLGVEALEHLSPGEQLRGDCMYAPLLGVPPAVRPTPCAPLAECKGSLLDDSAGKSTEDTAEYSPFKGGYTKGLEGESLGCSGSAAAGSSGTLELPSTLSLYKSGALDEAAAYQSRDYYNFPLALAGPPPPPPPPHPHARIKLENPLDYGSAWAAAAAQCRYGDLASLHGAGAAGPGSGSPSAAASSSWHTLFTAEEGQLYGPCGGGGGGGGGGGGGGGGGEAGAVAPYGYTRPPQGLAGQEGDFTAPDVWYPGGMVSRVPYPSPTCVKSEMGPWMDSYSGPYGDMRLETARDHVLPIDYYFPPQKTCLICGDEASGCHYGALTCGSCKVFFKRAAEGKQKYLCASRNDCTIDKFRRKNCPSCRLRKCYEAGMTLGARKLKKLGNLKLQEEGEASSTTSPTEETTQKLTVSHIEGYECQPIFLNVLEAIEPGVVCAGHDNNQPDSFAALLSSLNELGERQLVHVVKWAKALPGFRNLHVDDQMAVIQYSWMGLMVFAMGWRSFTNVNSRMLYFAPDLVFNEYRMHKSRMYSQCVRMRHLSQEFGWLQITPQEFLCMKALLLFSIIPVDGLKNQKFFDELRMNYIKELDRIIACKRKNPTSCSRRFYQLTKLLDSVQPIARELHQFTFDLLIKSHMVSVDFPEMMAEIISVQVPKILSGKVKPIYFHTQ
Test: NVS_NR_cAR: NovaScreen (NVS) Nuclear Receptor Binding Assay for chimpanzee Androgen Receptor (AR) (AID 2283346);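 further: radioligand displacement from AR measured by scintillation counting in a cell-free assay; a loss of bound radioligand signal versus DMSO counts as binding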
Inconclusive results are not listed. Activity calls are given as the source filed them. Rule for the calls: active = hit-call score of the fitted dose curve at least 0.9, where 1 is the maximum; inconclusive = response in the unintended direction; inactive = score below 0.9.
Result category, one only: active, inactive

Worked examples, 5 molecules total:
# molecule, class
rows = [
    ("O=C1c2c(O)ccc(Nc3ccc(CCO)cc3)c2C(=O)c2c([N+](=O)[O-])ccc(O)c21", "inactive"),
    ("C#CC(O)CCC (stereo unspecified)", "inactive"),
    ("CCCCCCCC/C=C\\CCCCCCCC(=O)OCC(O)CO (stereo unspecified)", "inactive"),
    ("CCN(CC)c1ccc(C=O)c(O)c1", "active"),
    ("CC(=O)CCC(C)C", "inactive"),
]

query: Outcome? `CCN=C1C=CC(=C(c2ccc(N(CC)CC)cc2)c2ccc(N(CC)CC)cc2)c2ccccc21`
result: active
